# assayed_system: IN v2 variant RBD (R319-F541 with L452R, T478K) (SARS-CoV-2, UniProt P0DTC2 319-541)
# method_notes: flow cytometry, blocking of binding to hACE-2 cells
property_measured: percent blocking
Note to self: number, then unit, no commentary.

>>> data_value("1035419 (antibody, V domains shown) VH: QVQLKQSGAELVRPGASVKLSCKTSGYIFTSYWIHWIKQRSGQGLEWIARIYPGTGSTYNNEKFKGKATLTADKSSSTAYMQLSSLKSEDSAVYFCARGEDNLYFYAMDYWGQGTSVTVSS VL: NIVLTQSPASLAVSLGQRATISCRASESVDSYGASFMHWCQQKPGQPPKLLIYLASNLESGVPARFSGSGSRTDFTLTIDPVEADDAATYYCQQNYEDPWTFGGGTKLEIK")
"72.5%"
>>> data_value("1035224 (antibody, V domains shown) VH: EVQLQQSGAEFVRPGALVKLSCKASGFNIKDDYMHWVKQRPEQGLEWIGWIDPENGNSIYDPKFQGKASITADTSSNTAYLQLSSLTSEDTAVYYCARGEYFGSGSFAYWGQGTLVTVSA VL: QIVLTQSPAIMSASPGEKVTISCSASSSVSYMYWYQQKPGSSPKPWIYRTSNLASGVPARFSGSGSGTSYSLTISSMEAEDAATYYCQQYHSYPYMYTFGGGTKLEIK")
"0%"

stdin: Provide only the value of recorded percent blocking for 1035716 (antibody, V domains shown) VH: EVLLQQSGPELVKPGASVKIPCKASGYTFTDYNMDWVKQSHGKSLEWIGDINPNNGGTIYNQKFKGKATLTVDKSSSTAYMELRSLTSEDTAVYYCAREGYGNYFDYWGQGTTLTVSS VL: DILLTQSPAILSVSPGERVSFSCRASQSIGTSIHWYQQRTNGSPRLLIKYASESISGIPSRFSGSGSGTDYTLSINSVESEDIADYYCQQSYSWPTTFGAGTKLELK
stdout: 96.5%
